Where do the numbers come from? From patent US6432688B1.

Tested on: amino alcohol dehydrogenase derived from Streptomyces virginiae IFO 12827
Assay: Substrate specificity, relative activity to various substrates
Settings: Substrate (Amines); TABLE 5 printed a fourth time
compounds and their reported Relative activity (%)

Compound	Relative activity (%)
CCCCCCN	173%
CCCCN	170%
CCC(N)CC	270%
CCCCCCCCN	114%
CC[C@@H](C)N [(R)-2-aminobutane]	127%
CCCCC[C@@H](C)N [(R)-2-aminoheptane]	91%
C[C@@H](N)c1ccccc1 [(R)-1-phenethylamine]	127%
NCc1ccccc1	134%
CCCC(C)N (stereo not shown)	252%
CC(N)CCc1ccccc1 (stereo not shown)	152%

---

compounds and their reported Relative activity (%)
Tested on: amino alcohol dehydrogenase derived from Streptomyces virginiae IFO 12827
Experiment: Substrate specificity, relative activity to various substrates
Details: Substrate (Amines); TABLE 5 printed a second time

Compound	Relative activity (%)
C[C@@H](N)c1ccccc1 [(R)-1-phenethylamine]	127
CCCCCCN	173
CCCCCCCCN	114
NCc1ccccc1	134
CCCCN	170
CCCCC[C@@H](C)N [(R)-2-aminoheptane]	91
CC[C@@H](C)N [(R)-2-aminobutane]	127

---

System: amino alcohol dehydrogenase derived from Streptomyces virginiae IFO 12827
Assay: Substrate specificity, relative activity to various substrates
Settings: Substrate (Amines); TABLE 5 printed a third time
compounds and their reported Relative activity (%)

Compound	Relative activity (%)
CCCCCCN [n-hexylamine]	173
CCCC(C)N (stereo not shown) [2-aminopentane]	252
CCCCCCCCN [n-octylamine]	114
CCC(N)CC [3-aminopentane]	270
CCCCC[C@@H](C)N [(R)-2-aminoheptane]	91
NCc1ccccc1 [benzylamine]	134
CC[C@@H](C)N [(R)-2-aminobutane]	127

---

Tested on: amino alcohol dehydrogenase derived from Streptomyces virginiae IFO 12827
Test: Substrate specificity, relative activity to various substrates
Conditions: Substrate (Amino alcohols); activity to serinol as 100%; TABLE 3
compounds and their reported Relative activity (%)
Experimental endpoint: Relative activity (%)

Compound	Reported
Nc1ncccc1O [2-amino-3-hydroxypyridine]	136%
N[C@H](CO)Cc1ccccc1 [(S)-(−)-2-amino-3-phenyl-1-propanol]	120%
CCC(N)CO (single isomer, unassigned; (+)) [(+)-2-amino-1-butanol]	109%
CC(C)(N)CO	115%
CSCC[C@H](N)CO [L-(−)-methioninol]	85%
NC(CO)CO	100%
CC(C)[C@H](N)CO [(S)-(+)-2-amino-3-methyl-1-butanol]	43%
CC[C@H](C)[C@H](N)CO	113%
CC(C)C[C@H](N)CO [(S)-(+)-leucinol]	105%
CCCC(N)CO (racemic)	103%
NC1CCCCC1O (centres unmarked)	113%

---

Tested on: amino alcohol dehydrogenase derived from Streptomyces virginiae IFO 12827
Assay: Substrate specificity, relative activity to various substrates
Details: Substrate (Amines); TABLE 5 printed a second time
compounds and their reported Relative activity (%)

Compound	System tested	Value units	Relative activity (%)
CC(N)CCc1ccccc1 (stereo not drawn)	amino alcohol dehydrogenase derived from Streptomyces virginiae IFO 12827	%	152
CCC(N)CC	amino alcohol dehydrogenase derived from Streptomyces virginiae IFO 12827	%	270
CCCC(C)N (stereo not drawn)	amino alcohol dehydrogenase derived from Streptomyces virginiae IFO 12827	%	252

---

compounds and their reported Relative activity (%)
Tested on: amino alcohol dehydrogenase derived from Streptomyces virginiae IFO 12827
Test: Substrate specificity, relative activity to various substrates
Conditions: Substrate (Amines); TABLE 5 printed a third time
Experimental endpoint: Relative activity (%)

Compound	Experimental endpoint	Reported
CCCCN	Relative activity (%)	170
CC(N)CCc1ccccc1 (stereo not drawn)	Relative activity (%)	152
C[C@@H](N)c1ccccc1 [(R)-1-phenethylamine]	Relative activity (%)	127

---

Tested on: amino alcohol dehydrogenase derived from Streptomyces virginiae IFO 12827
Assay: Substrate specificity, relative activity to various substrates
Conditions: Substrate (Amines); TABLE 5
compounds and their reported Relative activity (%)
Experimental endpoint: Relative activity (%)

Compound	Reported
CCCCCCN	173
CCCCC[C@@H](C)N [(R)-2-aminoheptane]	91
C[C@@H](N)c1ccccc1 [(R)-1-phenethylamine]	127
CC[C@@H](C)N [(R)-2-aminobutane]	127
CCCCN	170
CCCCCCCCN	114
CC(N)CCc1ccccc1 (stereo not shown)	152
NCc1ccccc1	134
CCCC(C)N (stereo not shown)	252
CCC(N)CC	270

---

Test system: amino alcohol dehydrogenase derived from Streptomyces virginiae IFO 12827
Assay: Substrate specificity, relative activity to various substrates
Details: Substrate (Amino alcohols); activity to serinol as 100%; TABLE 3 printed a second time

Compound	System tested	Relative activity (%)
CC(C)[C@H](N)CO [(S)-(+)-2-amino-3-methyl-1-butanol]	amino alcohol dehydrogenase derived from Streptomyces virginiae IFO 12827	43
CSCC[C@H](N)CO [L-(−)-methioninol]	amino alcohol dehydrogenase derived from Streptomyces virginiae IFO 12827	85
NC1CCCCC1O (centres unmarked)	amino alcohol dehydrogenase derived from Streptomyces virginiae IFO 12827	113
CC(C)C[C@H](N)CO [(S)-(+)-leucinol]	amino alcohol dehydrogenase derived from Streptomyces virginiae IFO 12827	105
CC[C@H](C)[C@H](N)CO	amino alcohol dehydrogenase derived from Streptomyces virginiae IFO 12827	113
